Data provenance: patent US7851474B2

The following compounds are shown together with reported Ki values.
# test target: chimeric human H3 receptor (Homo sapiens, UniProt Q9Y5N1, E19D)
# Construct: made in house; host or cells: Sf9 insect cells (baculovirus infection); P2 membrane preparation
# Sequence (Q9Y5N1 with tags, fused parts or gaps E19D): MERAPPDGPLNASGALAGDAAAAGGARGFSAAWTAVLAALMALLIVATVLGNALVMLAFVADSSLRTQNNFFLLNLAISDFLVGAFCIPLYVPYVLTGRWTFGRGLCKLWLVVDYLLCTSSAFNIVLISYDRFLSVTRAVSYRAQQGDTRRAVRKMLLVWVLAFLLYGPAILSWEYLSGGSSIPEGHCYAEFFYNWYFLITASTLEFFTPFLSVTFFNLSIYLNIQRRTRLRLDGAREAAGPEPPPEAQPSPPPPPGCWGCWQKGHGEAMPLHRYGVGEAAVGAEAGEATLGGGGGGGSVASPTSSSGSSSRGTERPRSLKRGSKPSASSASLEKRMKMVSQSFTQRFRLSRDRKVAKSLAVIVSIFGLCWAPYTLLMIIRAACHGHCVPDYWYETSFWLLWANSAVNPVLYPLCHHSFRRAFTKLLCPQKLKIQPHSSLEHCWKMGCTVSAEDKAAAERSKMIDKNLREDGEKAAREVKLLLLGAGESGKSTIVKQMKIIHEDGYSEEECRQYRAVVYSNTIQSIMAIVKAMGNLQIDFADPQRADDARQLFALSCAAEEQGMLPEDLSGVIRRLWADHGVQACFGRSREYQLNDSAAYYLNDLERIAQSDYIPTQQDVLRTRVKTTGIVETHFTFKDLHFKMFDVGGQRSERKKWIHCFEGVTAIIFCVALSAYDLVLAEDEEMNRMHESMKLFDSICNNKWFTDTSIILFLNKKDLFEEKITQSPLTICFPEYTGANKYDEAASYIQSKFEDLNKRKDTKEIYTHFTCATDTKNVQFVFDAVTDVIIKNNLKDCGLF
# assay text: Chimeric human H3 receptor GTP binding assay (agonist-stimulated GTP-gamma35S binding, Example 7)
# Format: biochemical
# measurement context: "*" in Ki of Table II; assay of Example 7; read-out: Ki
quantity kind: Ki

>>> observed_measurement("O=C(Cc1c(Cl)cccc1Cl)N1CCN(CC(=O)N2CCN(C3CCC3)CC2)CC1")
"< 1 µM"
>>> observed_measurement("COc1ccc(CC(=O)N2CCN(CC(=O)N3CCN(C4CCC4)CC3)CC2)c(OC)c1")
"< 1 µM"
>>> observed_measurement("O=C(CN1CCN(c2ccc(-c3ccc(Cl)c(C(F)(F)F)c3)cc2)CC1)N1CCN(C2CCC2)CC1")
"< 1 µM"
>>> observed_measurement("CC(C)N1CCN(C(=O)CN2CCN(c3ccc(Cl)c(C(F)(F)F)c3)CC2)CC1")
"< 1 µM"
>>> observed_measurement("O=C(N1CCN(C2CCCC2)CC1)N1CCC2(CC1)C(=O)N(Cc1ccccc1)c1ccccc12")
"< 1 µM"
>>> observed_measurement("Cc1cccc(OC(C)C(=O)N2CCN(CC(=O)N3CCN(C4CCC4)CC3)CC2)c1C (stereo not drawn)")
"< 1 µM"
>>> observed_measurement("CC(=O)c1cccc(-c2ccc(N3CCN(CC(=O)N4CCN(C5CCC5)CC4)CC3)nn2)c1")
"< 1 µM"
>>> observed_measurement("CC(=O)N1CCN(CC(=O)N2CCN(C3CCC3)CC2)CC1")
"< 1 µM"
>>> observed_measurement("CC(=O)N1CCN(CC(=O)N2CCN(C3CCCC3)CC2)CC1")
"< 1 µM"
>>> observed_measurement("O=C(CN1CCC2(CC1)CN(Cc1ccccc1)c1cccnc12)N1CCN(C2CCC2)CC1")
"< 1 µM"
>>> observed_measurement("O=C(N1CCN(C2CCC2)CC1)N1CCC2(CC1)C(=O)N(Cc1ccccc1)c1ccccc12")
"< 1 µM"
>>> observed_measurement("CC(C)N1CCN(C(=O)CN2CCN(c3ccc(C(F)(F)F)cn3)CC2C)CC1 (stereo not drawn)")
"< 1 µM"
>>> observed_measurement("CC(=O)c1ccc(-c2ccc(N3CCN(CC(=O)N4CCN(C5CCC5)CC4)CC3)nn2)cc1")
"< 1 µM"
>>> observed_measurement("O=C(CN1CCN(c2ccc(S(=O)(=O)Cc3ccccc3)cc2)CC1)N1CCN(C2CCC2)CC1")
"< 1 µM"
>>> observed_measurement("CCC(C)N1CCN(C(=O)CN2CCC(N3CCCCCC3)CC2)CC1 (stereo not drawn)")
"< 1 µM"
>>> observed_measurement("CCCN(CC1CC1)C1CCN(CC(=O)N2CCN(C(C)CC)CC2)CC1 (stereo not drawn)")
"< 1 µM"
>>> observed_measurement("O=C(CN1CCN(c2ccc(-c3cc(C(F)(F)F)cc(C(F)(F)F)c3)cc2)CC1)N1CCN(C2CCC2)CC1")
"< 1 µM"
>>> observed_measurement("O=C(CN1CCN(c2ccc(-c3cc(C(F)(F)F)ccc3Cl)cc2)CC1)N1CCN(C2CCC2)CC1")
"< 1 µM"
>>> observed_measurement("O=C(CN1CCC(N2CCCCCC2)CC1)N1CCN(C2CCCCC2)CC1")
"< 1 µM"
>>> observed_measurement("CC(=O)c1cccc(-c2cnc(N3CCN(CC(=O)N4CCN(C5CCC5)CC4)CC3)cn2)c1")
"< 1 µM"
>>> observed_measurement("O=C(CN1CCN(c2ccc(-c3ccc4c(c3)OCO4)cc2)CC1)N1CCN(C2CCC2)CC1")
"< 1 µM"
>>> observed_measurement("CC1CN(c2ccc(C(F)(F)F)cn2)CCN1CC(=O)N1CCN(C(C)(C)C)CC1 (stereo not drawn)")
"< 1 µM"
>>> observed_measurement("O=C(Cc1c(Cl)ccc(Cl)c1Cl)N1CCN(CC(=O)N2CCN(C3CCC3)CC2)CC1")
"< 1 µM"
>>> observed_measurement("CCC(C)N1CCN(C(=O)CN2CCC(N3CCC(C)CC3)CC2)CC1 (stereo not drawn)")
"< 1 µM"
>>> observed_measurement("O=C(CN1CCC(N2CCCCCC2)CC1)N1CCN(C2CCC2)CC1")
"< 1 µM"
>>> observed_measurement("CC(C)N1CCN(C(=O)CN2CCN(c3ccc(F)c(C(F)(F)F)c3)CC2)CC1")
"< 1 µM"
>>> observed_measurement("Cc1ccccc1OC(C)C(=O)N1CCN(CC(=O)N2CCN(C3CCC3)CC2)CC1 (stereo not drawn)")
"< 1 µM"
>>> observed_measurement("O=C(CN1CCN(c2cccc(-c3ccccc3)c2)CC1)N1CCN(C2CCC2)CC1")
"< 1 µM"
>>> observed_measurement("O=C(CN1CCN(c2ccc(-c3ccccc3)cc2)CC1)N1CCN(C2CCC2)CC1")
"< 1 µM"
>>> observed_measurement("O=C(CN1CCN(c2ccc(Cl)c(C(F)(F)F)c2)CC1)N1CCN(C2CCC2)CC1")
"< 1 µM"
>>> observed_measurement("CCCN(CCC)C1CCN(CC(=O)N2CCN(C(C)CC)CC2)CC1 (stereo not drawn)")
"< 1 µM"
>>> observed_measurement("CC(=O)c1ccc(N2CCN(CC(=O)N3CCN(C4CCC4)CC3)CC2)c(C(F)(F)F)c1")
"< 1 µM"
>>> observed_measurement("CC(=O)N1CCN(CC(=O)N2CCN(C3CCCCC3)CC2)CC1")
"< 1 µM"
